Origin of measurements: patent US8101774B2

Reported IC50 values for a set of molecules
Target: Microsomal triglyceride transfer protein (MTP) from human small intestine microsome (Homo sapiens, UniProt P55157)
Construct: Human small intestine microsome was dialyzed against 10 mM phosphate buffer; tissue Tissue Transforming Technologies, Inc; host or cells: human small intestine microsome
Sequence (P55157 19-894): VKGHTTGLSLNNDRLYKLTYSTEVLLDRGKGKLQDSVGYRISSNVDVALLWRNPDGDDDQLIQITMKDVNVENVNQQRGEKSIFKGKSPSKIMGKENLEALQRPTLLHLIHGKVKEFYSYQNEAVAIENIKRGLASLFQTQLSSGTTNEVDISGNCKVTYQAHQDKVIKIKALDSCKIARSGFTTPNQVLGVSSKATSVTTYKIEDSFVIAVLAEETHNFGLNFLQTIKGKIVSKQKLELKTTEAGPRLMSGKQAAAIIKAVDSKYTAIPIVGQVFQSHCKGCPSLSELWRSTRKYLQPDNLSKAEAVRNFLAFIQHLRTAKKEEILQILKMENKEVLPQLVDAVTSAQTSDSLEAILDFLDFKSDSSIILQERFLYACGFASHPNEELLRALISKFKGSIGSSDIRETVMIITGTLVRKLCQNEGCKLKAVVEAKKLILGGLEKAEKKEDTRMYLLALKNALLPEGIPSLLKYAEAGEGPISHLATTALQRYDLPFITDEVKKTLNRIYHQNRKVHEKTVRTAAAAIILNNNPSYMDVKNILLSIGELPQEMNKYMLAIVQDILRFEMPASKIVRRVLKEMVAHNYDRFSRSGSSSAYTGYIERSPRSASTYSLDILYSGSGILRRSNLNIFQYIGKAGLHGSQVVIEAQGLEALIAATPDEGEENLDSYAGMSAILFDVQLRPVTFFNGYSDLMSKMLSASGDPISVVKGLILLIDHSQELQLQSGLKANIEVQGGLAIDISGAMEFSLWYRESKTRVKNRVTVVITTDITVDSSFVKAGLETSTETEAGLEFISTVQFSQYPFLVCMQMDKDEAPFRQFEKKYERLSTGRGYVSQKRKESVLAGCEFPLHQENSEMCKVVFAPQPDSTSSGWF
Sequence (P07237 18-508 partner): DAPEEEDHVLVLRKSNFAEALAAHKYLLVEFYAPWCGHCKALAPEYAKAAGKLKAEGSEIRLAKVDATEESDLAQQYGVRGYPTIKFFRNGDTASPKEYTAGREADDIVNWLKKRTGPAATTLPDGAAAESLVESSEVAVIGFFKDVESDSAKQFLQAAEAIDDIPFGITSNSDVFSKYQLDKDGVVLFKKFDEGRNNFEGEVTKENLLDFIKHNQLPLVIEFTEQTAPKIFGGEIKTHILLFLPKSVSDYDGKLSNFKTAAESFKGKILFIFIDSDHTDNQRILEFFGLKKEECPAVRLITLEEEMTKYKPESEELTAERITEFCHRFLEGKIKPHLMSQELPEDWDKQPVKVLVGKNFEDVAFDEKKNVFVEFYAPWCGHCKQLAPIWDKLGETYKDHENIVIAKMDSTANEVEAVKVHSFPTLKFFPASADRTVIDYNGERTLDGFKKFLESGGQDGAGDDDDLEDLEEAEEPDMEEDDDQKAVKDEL
Assay: Inhibition test of interliposomal triglyceride (TG) transfer activity by MTP
Type: biochemical
Conditions: purified MTP from human small intestine microsome, 37° C., 1.5 hours
Procedure: Microsomal triglyceride transfer protein (MTP) from human small intestine microsome (manufactured by Tissue Transforming Technologies, Inc.) was purified in such a way described below. Human small intestine microsome was dialyzed against 10 mM phosphate buffer (300 mL, pH 6.8) twice for about 2 hours and once for further not less than 12 hours, at about 4° C. After dialysis, the mixture was centrifuged at 4° C. and 15,000×g for 5 minutes and then the supernatant was recovered. […]

>>> reported_measurement("COC(=O)c1cc(C)c(OC(=O)CCCc2ccc(NC(=O)c3ccc(C)nc3-c3ccc(C(F)(F)F)cc3)c(C(=O)N(C)C)c2)c(Cl)c1 [Compound 1-35]")
"< 10 nM"
>>> reported_measurement("CC(C)n1nnc(-c2ccc(OC(=O)CCCc3ccc(NC(=O)c4ccccc4-c4ccc(C(F)(F)F)cc4)c(C(=O)N(C)C)c3)cc2)n1 [Compound 1-115]")
"< 10 nM"

Sample COC(=O)c1ccc(OC(=O)CCCc2ccc(NC(=O)c3ccc(C)cc3-c3ccc(C(F)(F)F)cc3)c(C(=O)N(C)C)c2)cc1 [Compound 1-9] — what was its IC50? < 10 nM

What IC50 value was documented for this molecule, CCc1cc(C(=O)OC)cc(C(=O)OC)c1OC(=O)CCCc1ccc(NC(=O)c2ccc(C)nc2-c2ccc(C(F)(F)F)cc2)c(C(=O)N(C)C)c1 [Compound 1-51] ? < 10 nM

Give the measured IC50 of COC(=O)c1ccc(-c2nc(C)ccc2C(=O)Nc2ccc(CCCC(=O)Oc3c(C)cc(C(=O)OC)cc3C(=O)OC)cc2C(=O)N(C)C)cc1 [Compound 4-2] . < 10 nM

// lookup IC50 for COc1ccc(COC(=O)c2ccc(OC(=O)CCCc3ccc(NC(=O)c4ccccc4-c4ccc(C(F)(F)F)cc4)c(C(=O)N(C)C)c3)cc2)cc1 [Compound 1-96] < 10 nM

----------
This listing pairs compounds with measured IC50.
target: Microsomal triglyceride transfer protein (MTP) from human small intestine microsome (Homo sapiens); construct: Human small intestine microsome was dialyzed against 10 mM phosphate buffer; tissue Tissue Transforming Technologies, Inc; host or cells: human small intestine microsome; assay: Inhibition test of interliposomal triglyceride (TG) transfer activity by MTP; format: biochemical; settings: purified MTP from human small intestine microsome, 37° C., 1.5 hours

>>> reported_measurement("COC(=O)c1cc(C)c(OC(=O)CCCc2ccc(NC(=O)c3ccc(C)nc3-c3ccc(C(F)(F)F)cc3)c(C(=O)N(C)C)c2)c(F)c1 [Compound 1-41]")
"< 10 nM"
>>> reported_measurement("COC(=O)c1ccc(OC(=O)C2CCN(c3ccc(NC(=O)c4ccccc4-c4ccc(C(F)(F)F)cc4)c(C(=O)N(C)C)c3)CC2)c(F)c1 [Compound 3-2]")
"10 to 100 nM"
>>> reported_measurement("CC(C)OCCOC(=O)c1ccc(OC(=O)CCCc2ccc(NC(=O)c3ccccc3-c3ccc(C(F)(F)F)cc3)c(C(=O)N(C)C)c2)cc1 [Compound 1-76]")
"< 10 nM"
>>> reported_measurement("COc1cc(C(=O)OC(C)C)cc(OC)c1OC(=O)CCCc1ccc(NC(=O)c2ccc(C)nc2-c2ccc(C(F)(F)F)cc2)c(C(=O)N(C)C)c1 [Compound 1-44]")
"< 10 nM"
>>> reported_measurement("COC(=O)c1ccc(OC(=O)CCCc2ccc(NC(=O)c3ccccc3-c3ccc(C(F)(F)F)cc3)c(C(=O)N(C)C)c2)cc1Cl [Compound 1-18]")
"< 10 nM"
>>> reported_measurement("COC(=O)c1cc(Cl)c(OC(=O)CCCc2ccc(NC(=O)c3ccc(C)nc3-c3ccc(C(F)(F)F)cc3)c(C(=O)N(C)C)c2)c(C(C)C)c1 [Compound 1-74]")
"< 10 nM"
>>> reported_measurement("COC(=O)c1ccc(OC(=O)CCCc2ccc(NC(=O)c3ccccc3-c3ccc(C(F)(F)F)cc3)c(C(=O)N(C)C)c2)c(C(C)C)c1 [Compound 1-68]")
"< 10 nM"
>>> reported_measurement("Cc1cccc(COC(=O)c2ccc(OC(=O)CCCc3ccc(NC(=O)c4ccccc4-c4ccc(C(F)(F)F)cc4)c(C(=O)N(C)C)c3)cc2)n1 [Compound 1-101]")
"< 10 nM"

Note: attention shifts to another entry.
State the recorded IC50 for this entry: Cc1ccc(C(=O)Nc2ccc(CCCC(=O)Oc3ccc(C(=O)OCc4cccnc4)cc3)cc2C(=O)N(C)C)c(-c2ccc(C(F)(F)F)cc2)n1 [Compound 1-94] < 10 nM
